Recorded values, source ChEMBL document CHEMBL5442334.

Listing of entries alongside the reported inhibition.
# assay system: Kappa-type opioid receptor (Homo sapiens) (UniProt P41145)
# Sequence (P41145 whole entry): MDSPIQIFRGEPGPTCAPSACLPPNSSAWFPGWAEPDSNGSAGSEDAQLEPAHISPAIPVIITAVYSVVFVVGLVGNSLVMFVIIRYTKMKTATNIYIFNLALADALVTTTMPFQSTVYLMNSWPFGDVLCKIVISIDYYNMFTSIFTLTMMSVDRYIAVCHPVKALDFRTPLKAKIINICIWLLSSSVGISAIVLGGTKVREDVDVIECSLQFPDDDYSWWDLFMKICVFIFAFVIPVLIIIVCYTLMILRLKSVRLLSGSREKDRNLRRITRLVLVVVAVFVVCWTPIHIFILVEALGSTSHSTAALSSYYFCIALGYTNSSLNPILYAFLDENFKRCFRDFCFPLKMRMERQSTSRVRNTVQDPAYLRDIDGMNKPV
# measurement protocol: SafetyScreen: kappa (KOP) Human Opioid GPCR Binding Agonist Radioligand LeadHunter Assay, catalogue number: 4461
# condition notes: Test compound concentration 10.0 uM
Report as a plain number; the unit % is understood.

Reference set, count: 3
1. CC(C)[C@@H](Nc1ncnc2[nH]c(-c3cnn(C)c3C#N)cc12)c1ccc2c(n1)OCCO2 ... 56
2. COc1ccc([C@H](Cc2nnn[nH]2)NC(=O)c2ncnc3[nH]ccc23)cc1 ... 2
3. CC(C)[C@H](Nc1ncnc2[nH]ccc12)c1ccc2c(c1)S(=O)(=O)CCC2 ... 84

Consider now this further compound.
Q: Which inhibition value belongs to `CNCc1cc(-c2cc3c(N[C@@H](c4ccc5c(c4)S(=O)(=O)CCC5)C(C)C)ncnc3[nH]2)co1` ?
Result: 57

###

Listing of entries alongside the reported inhibition.
# assay system: cGMP-inhibited 3',5'-cyclic phosphodiesterase 3A (Homo sapiens) (UniProt Q14432)
# Sequence (Q14432 whole entry): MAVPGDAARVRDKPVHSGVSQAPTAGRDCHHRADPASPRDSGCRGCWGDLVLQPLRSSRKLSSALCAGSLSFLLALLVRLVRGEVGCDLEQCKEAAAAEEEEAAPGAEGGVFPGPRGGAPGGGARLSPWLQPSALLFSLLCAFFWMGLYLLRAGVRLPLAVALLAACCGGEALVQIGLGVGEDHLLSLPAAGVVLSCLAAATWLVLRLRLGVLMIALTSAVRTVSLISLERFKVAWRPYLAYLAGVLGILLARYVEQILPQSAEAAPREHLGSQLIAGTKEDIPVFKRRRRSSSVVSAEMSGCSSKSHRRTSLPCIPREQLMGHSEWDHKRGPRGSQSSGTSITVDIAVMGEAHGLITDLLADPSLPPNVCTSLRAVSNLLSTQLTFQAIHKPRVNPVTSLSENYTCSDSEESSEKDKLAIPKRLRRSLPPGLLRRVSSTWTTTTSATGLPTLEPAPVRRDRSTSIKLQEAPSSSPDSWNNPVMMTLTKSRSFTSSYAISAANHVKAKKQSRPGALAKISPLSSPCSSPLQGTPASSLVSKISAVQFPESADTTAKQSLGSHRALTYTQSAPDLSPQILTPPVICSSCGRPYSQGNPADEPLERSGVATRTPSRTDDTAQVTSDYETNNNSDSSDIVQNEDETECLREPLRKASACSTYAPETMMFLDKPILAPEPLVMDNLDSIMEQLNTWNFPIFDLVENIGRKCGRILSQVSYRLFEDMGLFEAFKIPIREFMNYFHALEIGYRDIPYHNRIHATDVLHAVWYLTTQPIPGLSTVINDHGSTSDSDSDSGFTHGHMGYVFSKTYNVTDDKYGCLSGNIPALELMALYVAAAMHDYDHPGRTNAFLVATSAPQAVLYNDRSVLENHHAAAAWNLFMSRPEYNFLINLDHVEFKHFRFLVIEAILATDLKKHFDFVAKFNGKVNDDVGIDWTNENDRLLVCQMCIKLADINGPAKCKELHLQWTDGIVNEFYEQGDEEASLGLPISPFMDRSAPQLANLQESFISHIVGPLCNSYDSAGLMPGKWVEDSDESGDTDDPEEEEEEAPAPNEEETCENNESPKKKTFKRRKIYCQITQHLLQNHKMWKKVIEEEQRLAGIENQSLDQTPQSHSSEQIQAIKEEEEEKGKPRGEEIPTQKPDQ
# measurement protocol: SafetyScreen: PDE3A Human Phosphodiesterase Enzymatic LeadHunter Assay, catalogue number: 4072
# Assay type: functional
# condition notes: Test compound concentration 10.0 uM
Report as a plain number; the unit % is understood.

1) COc1ccc([C@H](Cc2nnn[nH]2)NC(=O)c2ncnc3[nH]ccc23)cc1 ... 62
2) CC(C)[C@@H](Nc1ncnc2[nH]c(-c3cnn(C)c3C#N)cc12)c1ccc2c(n1)OCCO2 ... 37
3) C[C@H](C(=O)O)[C@@H](NC(=O)c1ncnc2[nH]ccc12)c1ccc(Br)cc1 ... 52
4) CC(C)[C@@H](Nc1ncnc2[nH]c(C(=O)N[C@@H]3CCN(C)C3)cc12)c1ccc2c(c1)S(=O)(=O)CCC2 ... 4

Consider now this further compound.
Q: Which inhibition value belongs to `CNCc1cc(-c2cc3c(N[C@@H](c4ccc5c(c4)S(=O)(=O)CCC5)C(C)C)ncnc3[nH]2)co1` ?
Result: -5

###

Listing of entries alongside the reported inhibition.
# assay system: Acetylcholinesterase (Homo sapiens) (UniProt P22303)
# Sequence (P22303 whole entry): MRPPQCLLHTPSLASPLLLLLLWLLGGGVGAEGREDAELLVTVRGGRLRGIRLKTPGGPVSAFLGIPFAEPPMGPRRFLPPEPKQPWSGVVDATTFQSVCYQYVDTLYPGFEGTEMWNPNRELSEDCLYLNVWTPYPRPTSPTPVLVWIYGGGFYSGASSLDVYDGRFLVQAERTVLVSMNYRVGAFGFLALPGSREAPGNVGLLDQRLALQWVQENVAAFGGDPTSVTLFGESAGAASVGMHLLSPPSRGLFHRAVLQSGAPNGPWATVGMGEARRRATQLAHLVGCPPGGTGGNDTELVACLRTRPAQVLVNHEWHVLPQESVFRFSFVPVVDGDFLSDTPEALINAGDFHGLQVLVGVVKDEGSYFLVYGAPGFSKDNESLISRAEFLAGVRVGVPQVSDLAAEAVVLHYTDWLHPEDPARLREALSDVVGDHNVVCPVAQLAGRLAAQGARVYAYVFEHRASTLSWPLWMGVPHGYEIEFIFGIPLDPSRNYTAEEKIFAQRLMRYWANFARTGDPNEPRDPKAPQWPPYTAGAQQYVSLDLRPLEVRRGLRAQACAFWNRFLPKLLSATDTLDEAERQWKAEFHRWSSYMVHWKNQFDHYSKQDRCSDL
# measurement protocol: SafetyScreen: Acetylcholinesterase Human Enzymatic LeadHunter Assay, catalogue number: 363
# Format: functional
# condition notes: Test compound concentration 10.0 uM
Report as a plain number; the unit % is understood.

Reference set, count: 6
1. Cn1ncc(-c2cc3c(N[C@@H](c4ccc5c(n4)OCCO5)C(C)(C)C)ncnc3[nH]2)c1C#N ... 14
2. CC(C)[C@@H](Nc1ncnc2[nH]c(C(=O)N[C@@H]3CCN(C)C3)cc12)c1ccc2c(c1)S(=O)(=O)CCC2 ... 28
3. C[C@H](C(=O)O)[C@@H](NC(=O)c1ncnc2[nH]ccc12)c1ccc(Br)cc1 ... 12
4. CNC(=O)Cn1cc(-c2cc3c(N[C@@H](c4ccc5c(c4)S(=O)(=O)CCC5)C(C)C)ncnc3[nH]2)cn1 ... 13
5. Cc1nn(C)cc1-c1cc2c(N[C@H](c3ccc4c(c3)S(=O)(=O)CCC4)C(C)C)ncnc2[nH]1 ... 13
6. CC(C)[C@H](Nc1ncnc2[nH]ccc12)c1ccc2c(c1)S(=O)(=O)CCC2 ... 12

Q: Which inhibition value belongs to `CC(C)[C@H](Nc1ncnc2[nH]c(-c3cnn(C)c3C#N)cc12)c1ccc2c(n1)OCCO2` ?
Result: 15

Q: Which inhibition value belongs to `CC(C)[C@@H](Nc1ncnc2[nH]c(-c3cnn(C)c3C#N)cc12)c1ccc2c(n1)OCCO2` ?
Result: 22

Q: Which inhibition value belongs to `COc1ccc([C@H](Cc2nnn[nH]2)NC(=O)c2ncnc3[nH]ccc23)cc1` ?
Result: 11

Q: Which inhibition value belongs to `CNCc1cc(-c2cc3c(N[C@@H](c4ccc5c(c4)S(=O)(=O)CCC5)C(C)C)ncnc3[nH]2)co1` ?
Result: 10

###

Listing of entries alongside the reported inhibition.
# assay system: Beta-1 adrenergic receptor (Homo sapiens)
# measurement protocol: SafetyScreen: beta1 Human Adrenoceptor GPCR Binding Agonist Radioligand LeadHunter Assay, catalogue number: 18
# condition notes: Test compound concentration 10.0 uM
Report as a plain number; the unit % is understood.

1. CNC(=O)Cn1cc(-c2cc3c(N[C@@H](c4ccc5c(c4)S(=O)(=O)CCC5)C(C)C)ncnc3[nH]2)cn1 ... 5
2. CC(C)[C@@H](Nc1ncnc2[nH]c(-c3cnn(C)c3C#N)cc12)c1ccc2c(n1)OCCO2 ... -2

Q: Which inhibition value belongs to `CNCc1cc(-c2cc3c(N[C@@H](c4ccc5c(c4)S(=O)(=O)CCC5)C(C)C)ncnc3[nH]2)co1` ?
Result: -4

Q: Which inhibition value belongs to `CC(C)[C@@H](Nc1ncnc2[nH]c(C(=O)N[C@@H]3CCN(C)C3)cc12)c1ccc2c(c1)S(=O)(=O)CCC2` ?
Result: 4

Q: Which inhibition value belongs to `CC(C)[C@H](Nc1ncnc2[nH]ccc12)c1ccc2c(c1)S(=O)(=O)CCC2` ?
Result: 11

Q: Which inhibition value belongs to `Cn1ncc(-c2cc3c(N[C@@H](c4ccc5c(n4)OCCO5)C(C)(C)C)ncnc3[nH]2)c1C#N` ?
Result: 11

Q: Which inhibition value belongs to `COc1ccc([C@H](Cc2nnn[nH]2)NC(=O)c2ncnc3[nH]ccc23)cc1` ?
Result: -3

Q: Which inhibition value belongs to `C[C@H](C(=O)O)[C@@H](NC(=O)c1ncnc2[nH]ccc12)c1ccc(Br)cc1` ?
Result: -5

Q: Which inhibition value belongs to `Cc1nn(C)cc1-c1cc2c(N[C@H](c3ccc4c(c3)S(=O)(=O)CCC4)C(C)C)ncnc2[nH]1` ?
Result: 1

Q: Which inhibition value belongs to `CC(C)[C@H](Nc1ncnc2[nH]c(-c3cnn(C)c3C#N)cc12)c1ccc2c(n1)OCCO2` ?
Result: 11

###

Listing of entries alongside the reported inhibition.
# assay system: UniProt:P23975
# Sequence (P23975 whole entry): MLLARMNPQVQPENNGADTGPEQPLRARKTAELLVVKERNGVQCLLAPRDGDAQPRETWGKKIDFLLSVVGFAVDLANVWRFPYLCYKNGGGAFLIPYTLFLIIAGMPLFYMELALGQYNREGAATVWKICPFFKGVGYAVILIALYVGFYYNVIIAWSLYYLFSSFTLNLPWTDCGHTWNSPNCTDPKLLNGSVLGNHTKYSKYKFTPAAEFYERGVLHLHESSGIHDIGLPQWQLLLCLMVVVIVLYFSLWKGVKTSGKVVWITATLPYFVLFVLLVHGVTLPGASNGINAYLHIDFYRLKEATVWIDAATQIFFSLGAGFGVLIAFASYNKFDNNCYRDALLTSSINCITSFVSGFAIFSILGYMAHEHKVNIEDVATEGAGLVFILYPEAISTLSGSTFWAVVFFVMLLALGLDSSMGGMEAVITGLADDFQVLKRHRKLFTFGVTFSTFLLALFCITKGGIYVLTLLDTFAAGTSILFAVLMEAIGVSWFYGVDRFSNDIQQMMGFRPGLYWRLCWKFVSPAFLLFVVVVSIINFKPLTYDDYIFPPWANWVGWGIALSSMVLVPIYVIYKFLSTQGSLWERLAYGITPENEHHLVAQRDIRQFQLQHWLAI
# measurement protocol: SafetyScreen: NET Human Norepinephrine Transporter Binding Antagonist Radioligand LeadHunter Assay, catalogue number: 355
# condition notes: Test compound concentration 10.0 uM
Report as a plain number; the unit % is understood.

Reference set, count: 9
1. CC(C)[C@H](Nc1ncnc2[nH]c(-c3cnn(C)c3C#N)cc12)c1ccc2c(n1)OCCO2 ... 9
2. Cc1nn(C)cc1-c1cc2c(N[C@H](c3ccc4c(c3)S(=O)(=O)CCC4)C(C)C)ncnc2[nH]1 ... -2
3. CC(C)[C@@H](Nc1ncnc2[nH]c(-c3cnn(C)c3C#N)cc12)c1ccc2c(n1)OCCO2 ... 4
4. Cn1ncc(-c2cc3c(N[C@@H](c4ccc5c(n4)OCCO5)C(C)(C)C)ncnc3[nH]2)c1C#N ... 27
5. COc1ccc([C@H](Cc2nnn[nH]2)NC(=O)c2ncnc3[nH]ccc23)cc1 ... -5
6. CC(C)[C@@H](Nc1ncnc2[nH]c(C(=O)N[C@@H]3CCN(C)C3)cc12)c1ccc2c(c1)S(=O)(=O)CCC2 ... -1
7. CNCc1cc(-c2cc3c(N[C@@H](c4ccc5c(c4)S(=O)(=O)CCC5)C(C)C)ncnc3[nH]2)co1 ... 39
8. CNC(=O)Cn1cc(-c2cc3c(N[C@@H](c4ccc5c(c4)S(=O)(=O)CCC5)C(C)C)ncnc3[nH]2)cn1 ... -7
9. C[C@H](C(=O)O)[C@@H](NC(=O)c1ncnc2[nH]ccc12)c1ccc(Br)cc1 ... -6

Q: Checklist item: inhibition tested on UniProt:P23975, entry `CC(C)[C@H](Nc1ncnc2[nH]ccc12)c1ccc2c(c1)S(=O)(=O)CCC2` , value?
Result: -3

###

Listing of entries alongside the reported inhibition.
# assay system: Muscarinic acetylcholine receptor M3 (Homo sapiens)
# measurement protocol: SafetyScreen: M3 Human Acetylcholine (Muscarinic) GPCR Binding Antagonist Radioligand LeadHunter Assay, catalogue number: 95
# condition notes: Test compound concentration 10.0 uM
Report as a plain number; the unit % is understood.

Q: Which inhibition value belongs to `CC(C)[C@@H](Nc1ncnc2[nH]c(C(=O)N[C@@H]3CCN(C)C3)cc12)c1ccc2c(c1)S(=O)(=O)CCC2` ?
Result: -9

Q: Which inhibition value belongs to `CNC(=O)Cn1cc(-c2cc3c(N[C@@H](c4ccc5c(c4)S(=O)(=O)CCC5)C(C)C)ncnc3[nH]2)cn1` ?
Result: -9

Q: Which inhibition value belongs to `CNCc1cc(-c2cc3c(N[C@@H](c4ccc5c(c4)S(=O)(=O)CCC5)C(C)C)ncnc3[nH]2)co1` ?
Result: 5

###

# assay system: Beta-2 adrenergic receptor (Homo sapiens)
# measurement protocol: SafetyScreen: beta2 Human Adrenoceptor GPCR Binding Antagonist Radioligand LeadHunter Assay, catalogue number: 20
# condition notes: Test compound concentration 10.0 uM
quantity measured: inhibition (%)
Report as a plain number; the unit % is understood.

Reference set, count: 3
1. CC(C)[C@H](Nc1ncnc2[nH]ccc12)c1ccc2c(c1)S(=O)(=O)CCC2 ... -1
2. CC(C)[C@@H](Nc1ncnc2[nH]c(-c3cnn(C)c3C#N)cc12)c1ccc2c(n1)OCCO2 ... 3
3. CC(C)[C@@H](Nc1ncnc2[nH]c(C(=O)N[C@@H]3CCN(C)C3)cc12)c1ccc2c(c1)S(=O)(=O)CCC2 ... -3

Q: Which inhibition value belongs to `Cn1ncc(-c2cc3c(N[C@@H](c4ccc5c(n4)OCCO5)C(C)(C)C)ncnc3[nH]2)c1C#N` ?
Result: 4

Q: Which inhibition value belongs to `COc1ccc([C@H](Cc2nnn[nH]2)NC(=O)c2ncnc3[nH]ccc23)cc1` ?
Result: -6

Q: Which inhibition value belongs to `CNC(=O)Cn1cc(-c2cc3c(N[C@@H](c4ccc5c(c4)S(=O)(=O)CCC5)C(C)C)ncnc3[nH]2)cn1` ?
Result: 0

Q: Which inhibition value belongs to `C[C@H](C(=O)O)[C@@H](NC(=O)c1ncnc2[nH]ccc12)c1ccc(Br)cc1` ?
Result: -8

Q: Which inhibition value belongs to `Cc1nn(C)cc1-c1cc2c(N[C@H](c3ccc4c(c3)S(=O)(=O)CCC4)C(C)C)ncnc2[nH]1` ?
Result: -7

Q: Which inhibition value belongs to `CC(C)[C@H](Nc1ncnc2[nH]c(-c3cnn(C)c3C#N)cc12)c1ccc2c(n1)OCCO2` ?
Result: 3

Q: Which inhibition value belongs to `CNCc1cc(-c2cc3c(N[C@@H](c4ccc5c(c4)S(=O)(=O)CCC5)C(C)C)ncnc3[nH]2)co1` ?
Result: 6
